target: rat TRPV1 (Rattus norvegicus (Rat)); conditions: read-out: Rat IC50
Sequence (O35433 whole entry): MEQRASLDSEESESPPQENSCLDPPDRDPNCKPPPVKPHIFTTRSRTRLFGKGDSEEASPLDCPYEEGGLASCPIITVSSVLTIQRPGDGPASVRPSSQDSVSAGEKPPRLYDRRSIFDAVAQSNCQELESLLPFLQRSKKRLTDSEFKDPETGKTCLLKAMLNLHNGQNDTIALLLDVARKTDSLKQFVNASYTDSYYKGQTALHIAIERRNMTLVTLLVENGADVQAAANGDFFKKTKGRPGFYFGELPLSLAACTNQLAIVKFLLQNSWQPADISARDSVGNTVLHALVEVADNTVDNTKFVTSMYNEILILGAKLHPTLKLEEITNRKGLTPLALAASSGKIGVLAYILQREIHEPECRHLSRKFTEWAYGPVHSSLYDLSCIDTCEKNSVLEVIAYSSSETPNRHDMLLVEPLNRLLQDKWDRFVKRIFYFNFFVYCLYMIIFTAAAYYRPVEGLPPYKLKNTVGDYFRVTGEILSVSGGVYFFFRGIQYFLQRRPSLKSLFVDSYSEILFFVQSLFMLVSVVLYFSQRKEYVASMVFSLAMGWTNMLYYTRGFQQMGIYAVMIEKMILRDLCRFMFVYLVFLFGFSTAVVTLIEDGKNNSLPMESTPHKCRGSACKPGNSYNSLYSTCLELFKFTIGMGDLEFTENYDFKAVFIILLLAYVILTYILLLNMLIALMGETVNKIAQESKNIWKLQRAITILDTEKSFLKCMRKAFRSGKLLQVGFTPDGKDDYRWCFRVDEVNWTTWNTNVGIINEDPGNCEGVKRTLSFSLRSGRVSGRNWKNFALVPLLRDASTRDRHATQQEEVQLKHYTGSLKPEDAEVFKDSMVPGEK
Where a name gives a salt, the structure may show the parent alone.
measured-parameter: IC50 (nM)
Report the value in nM with no unit label.

Answered examples (3):
>>> observed_result("CN(C)c1nc2c(c(NCc3ccc(C(F)(F)F)nc3)n1)CCN(c1ncccc1C(F)(F)F)CC2 [Example 218, trifluoroacetic acid salt]")
120
>>> observed_result("FC(F)(F)c1ccc(Nc2nc(OC3CCCCCC3)nc3c2CCN(c2ncccc2C(F)(F)F)CC3)cc1")
1640
>>> observed_result("O[C@H]1CCCN(c2nc3c(c(Nc4ccc(C(F)(F)F)cc4)n2)CCN(c2ncccc2C(F)(F)F)CC3)C1 [Example 94B, trifluoroacetic acid salt]")
190

Entry CN(C)c1nc2c(c(NC3Cc4ccccc4C3)n1)CCN(c1ncccc1C(F)(F)F)CC2 [Example 82B, trifluoroacetic acid salt] needs its IC50 filled in; supply it.
2800

Entry Fc1cc(Nc2nc(N3CCCCC3)nc3c2CCN(c2ncccc2C(F)(F)F)CC3)ccc1C(F)(F)F needs its IC50 filled in; supply it.
70

Entry CCOc1nc2c(c(Nc3ccc(C(F)(F)F)cc3)n1)CCN(c1ncccc1C(F)(F)F)CC2 [Example 345, trifluoroacetic acid salt] needs its IC50 filled in; supply it.
190

###

Each entry below carries its recorded pIC50.
target: UniProtKB O35433; conditions: read-out: Rat IC50
Structures can show the parent of a compound that is named as a salt.
In simple prose, pIC50 is minus the logarithm base ten of a concentration in moles per litre.

>>> observed_result("CC(C)N(C)c1nc2c(c(Nc3ccc(C(F)(F)F)cc3)n1)CCN(c1ncccc1C(F)(F)F)CC2 [Example 272]")
6.70
>>> observed_result("FC(F)(F)c1ccc(Nc2nc(N3CCNCC3)nc3c2CCN(c2ncccc2C(F)(F)F)CC3)cc1 [Example 99B, trifluoroacetic acid salt]")
5.14
>>> observed_result("FC(F)(F)c1ccc(Nc2nc(N3CCC3)nc3c2CCN(c2ncccc2C(F)(F)F)CC3)nc1 [Example 197, trifluoroacetic acid salt]")
6.82

Entry CC(C)c1nc2c(c(Nc3ccc(C(C)(C)CO)cc3)n1)CCN(c1ncccc1C(F)(F)F)CC2 [Example 181] needs its pIC50 filled in; supply it.
6.09

###

target: rat TRPV1 (Rattus norvegicus (Rat)); settings: read-out: Rat IC50
Counter-ions that a name gives are not always drawn.
Each entry below carries its recorded pIC50.
In simple prose, pIC50 is minus the logarithm base ten of a concentration in moles per litre.

>>> observed_result("CN1CCC(C)(C)c2ccc(Nc3nc(SCc4ccccc4)nc4c3CCN(c3ncccc3C(F)(F)F)CC4)cc21 [Example 370]")
5.58
>>> observed_result("COC(=O)c1ccc(Nc2nc(N3CCCCC3)nc3c2CCN(c2ncccc2C(F)(F)F)CC3)cc1F [Example 385]")
6.09
>>> observed_result("CC(C)c1nc2c(c(Nc3ccc(C(O)C(F)(F)F)cc3)n1)CCN(c1ncccc1C(F)(F)F)CC2 (stereo not drawn) [Example 183]")
5.63
>>> observed_result("CC(C)c1nc2c(c(Nc3ccc([N+](=O)[O-])cc3)n1)CCN(c1ncccc1C(F)(F)F)CC2 [Example 136]")
6.96
>>> observed_result("O=S(=O)(c1ccc(Nc2nc(Sc3ccccc3)nc3c2CCN(c2ncccc2C(F)(F)F)CC3)cc1)C(F)(F)F [Example 350]")
7.52
>>> observed_result("CC(C)(C#N)c1ccc(Nc2nc(N3CCCCC3)nc3c2CCN(c2ncccc2C(F)(F)F)CC3)cc1 [Example 384]")
7.40

Entry Cc1cc(C(F)(F)F)ccc1Nc1nc(OC2CCOCC2)nc2c1CCN(c1ncccc1C(F)(F)F)CC2 [Example 312] needs its pIC50 filled in; supply it.
6.35

Entry CC(C)(C)c1ccc(Nc2nc(-c3ccoc3)nc3c2CCN(c2ncccc2C(F)(F)F)CC3)cc1 [Example 147] needs its pIC50 filled in; supply it.
6.96

Entry Cc1nc2c(c(Nc3ccc(C(F)(F)F)cn3)n1)CCN(c1ncccc1C(F)(F)F)CC2 [Example 69] needs its pIC50 filled in; supply it.
6.30

Entry CN(c1nc2c(c(Nc3ccc(C(F)(F)F)nc3)n1)CCN(c1ncccc1C(F)(F)F)CC2)C1CCCCC1 [Example 275] needs its pIC50 filled in; supply it.
6.72

Entry O=S(=O)(c1ccc(Nc2nc(OC3CCOCC3)nc3c2CCN(c2ncccc2C(F)(F)F)CC3)cc1)N1CCCC1 [Example 335] needs its pIC50 filled in; supply it.
6.82

Entry FC(F)(F)c1ccc(Nc2nc(N3CCC3)nc3c2CCN(c2ncccc2C(F)(F)F)CC3)cc1Cl [Example 231, trifluoroacetic acid salt] needs its pIC50 filled in; supply it.
7.00

Entry CC(C)c1nc2c(c(NCCc3ccc(Cl)c(Cl)c3)n1)CCN(c1ncccc1C(F)(F)F)CC2 [Example 108] needs its pIC50 filled in; supply it.
6.03
